Measured values drawn from patent US20070270418A1 for this set.

target: FGFR3 (Homo sapiens, UniProt P22607); construct: purchased Upstate (Charlottesville, Va.); test: Broad selectivity panel, 32P incorporation; format: biochemical; conditions: 0.1 μM compound, 40 μM ATP; read-out: Percent inhibition FGFR3
Sequence (P22607 23-806, species assumed): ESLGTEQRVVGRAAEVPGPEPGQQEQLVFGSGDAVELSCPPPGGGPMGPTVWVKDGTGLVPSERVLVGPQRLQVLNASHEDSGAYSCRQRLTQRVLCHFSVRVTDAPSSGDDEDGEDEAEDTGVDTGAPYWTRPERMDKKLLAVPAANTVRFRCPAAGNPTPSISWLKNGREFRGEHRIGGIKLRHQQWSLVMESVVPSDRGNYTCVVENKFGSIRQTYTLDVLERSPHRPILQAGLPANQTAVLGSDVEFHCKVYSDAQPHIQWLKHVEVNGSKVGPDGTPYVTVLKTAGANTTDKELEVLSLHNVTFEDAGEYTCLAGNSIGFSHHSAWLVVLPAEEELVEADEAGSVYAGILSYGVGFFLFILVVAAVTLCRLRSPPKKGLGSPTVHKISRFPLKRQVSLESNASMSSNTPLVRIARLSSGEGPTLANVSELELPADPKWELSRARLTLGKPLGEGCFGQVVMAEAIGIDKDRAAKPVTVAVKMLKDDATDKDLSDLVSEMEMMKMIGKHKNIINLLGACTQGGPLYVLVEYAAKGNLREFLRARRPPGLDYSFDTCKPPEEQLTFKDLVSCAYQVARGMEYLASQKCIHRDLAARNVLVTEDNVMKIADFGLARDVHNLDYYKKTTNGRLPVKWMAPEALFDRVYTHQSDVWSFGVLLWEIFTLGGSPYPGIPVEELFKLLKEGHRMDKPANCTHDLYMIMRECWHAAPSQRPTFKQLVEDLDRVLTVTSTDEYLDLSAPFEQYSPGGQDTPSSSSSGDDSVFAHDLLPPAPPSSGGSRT
REPORTED PROPERTY: inhibition at 0.1 µM (%)

[[record]]
test_smiles = "Fc1ccc(-c2nc3occn3c2-c2ccnc(N[C@@H]3CN4CCC3CC4)n2)cc1"
reported_property = "inhibition at 0.1 µM"
recorded_value = -1

[[record]]
test_smiles = "Fc1ccc(-c2nc3occn3c2-c2ccnc(N[C@H]3CN4CCC3CC4)n2)cc1"
reported_property = "inhibition at 0.1 µM"
recorded_value = -23

[[record]]
test_smiles = "CC(=O)N1CCC(Nc2nccc(-c3c(-c4ccc(F)cc4)nc4occn34)n2)CC1"
reported_property = "inhibition at 0.1 µM"
recorded_value = 19

